All values here come from the supplement of paper PMC9112550.

Tested on: Escherichia coli TOP10
Experiment: shrunken log2 fold change of peptide-encoding DNA abundance (4.5 h post-induction vs induction); higher = less antimicrobial activity (less host growth inhibition)
Conditions: time post-induction: 4.5 h; library: site-saturation at positions 5, 18, 19, 20
quantity_name: shrunken log2 fold change
// no unit string in output, number only

Entry RRIRTRPPRLPRPRPRPFITPRP : reported shrunken log2 fold change = ? -0.689

# query: shrunken log2 fold change of entry RRIRWRPPRLPRPRPRPNGLPRP 0.145

Which shrunken log2 fold change is reported for this sequence? RRIRQRPPRLPRPRPRPWFTPRP -0.356

###

I'd be grateful if you could share measured shrunken log2 fold change for these entries.
Tested on: Escherichia coli TOP10
Assay: shrunken log2 fold change of peptide-encoding DNA abundance (4.5 h post-induction vs induction); higher = less antimicrobial activity (less host growth inhibition)
Settings: time post-induction: 4.5 h; library: site-saturation at positions 5, 18, 19, 20
I only need the number, thanks.

Field request: shrunken log2 fold change | item: RRIRPRPPRLPRPRPRPKNCPRP -0.238

Fill in: shrunken log2 fold change of RRIRQRPPRLPRPRPRPAKLPRP is ___ 0.0771

What measured shrunken log2 fold change goes with RRIRARPPRLPRPRPRPQPWPRP ? 0.536

What value of measured shrunken log2 fold change is listed for RRIRNRPPRLPRPRPRPWAVPRP ? 0.0374

Fill blank: measured shrunken log2 fold change of the sequence RRIRSRPPRLPRPRPRPMVLPRP is ____. 0.114

Given the entry RRIRFRPPRLPRPRPRPMEMPRP , report its measured shrunken log2 fold change. -0.0294

So what's the measured shrunken log2 fold change for this one? RRIRLRPPRLPRPRPRPTMCPRP -0.0109

Please look up its shrunken log2 fold change: RRIRKRPPRLPRPRPRPSRYPRP 0.086

Please report the recorded shrunken log2 fold change for RRIRLRPPRLPRPRPRPIDYPRP . -0.0867

State the recorded shrunken log2 fold change for this entry: RRIRIRPPRLPRPRPRPITHPRP -0.329

Field request: shrunken log2 fold change | item: RRIRVRPPRLPRPRPRPDNWPRP -0.343

###

System: Escherichia coli TOP10
Test: shrunken log2 fold change of peptide-encoding DNA abundance (4.5 h post-induction vs induction); higher = less antimicrobial activity (less host growth inhibition)
Conditions: time post-induction: 4.5 h; library: site-saturation at positions 5, 18, 19, 20
Exercise: state measured shrunken log2 fold change for each of the sequences provided.
Provide a numeric answer; units are not to be included.

What value of shrunken log2 fold change has been reported for the following sequence? RRIRKRPPRLPRPRPRPEGKPRP 0.201

Could you tell me which shrunken log2 fold change is on file for RRIRLRPPRLPRPRPRPMLKPRP ? -0.295

I am curious: what shrunken log2 fold change value has been reported for RRIRARPPRLPRPRPRPFSKPRP ? -0.301

###

System: Escherichia coli TOP10
Experiment: shrunken log2 fold change of peptide-encoding DNA abundance (4.5 h post-induction vs induction); higher = less antimicrobial activity (less host growth inhibition)
Settings: time post-induction: 4.5 h; library: site-saturation at positions 5, 18, 19, 20
quantity_name: shrunken log2 fold change

Please state recorded shrunken log2 fold change (tested on Escherichia coli TOP10) of RRIRYRPPRLPRPRPRPETFPRP -0.0918

What is its shrunken log2 fold change for Escherichia coli TOP10? Entry: RRIRWRPPRLPRPRPRPWFWPRP 0.123

Field: shrunken log2 fold change (Escherichia coli TOP10). Entry: RRIRFRPPRLPRPRPRPHQIPRP -0.387

Which shrunken log2 fold change is reported with Escherichia coli TOP10 for this entry: RRIRVRPPRLPRPRPRPFHVPRP ? -0.262

Given the entry RRIRLRPPRLPRPRPRPYSMPRP , what shrunken log2 fold change was observed with Escherichia coli TOP10? -0.924

GET /values?readout=shrunken log2 fold change&system=Escherichia coli TOP10&item= RRIRDRPPRLPRPRPRPSTHPRP -0.247

What shrunken log2 fold change appears in the records for this sequence with Escherichia coli TOP10? RRIRCRPPRLPRPRPRPRYSPRP -0.712

Find the measured shrunken log2 fold change: item RRIRMRPPRLPRPRPRPPGQPRP , target or system Escherichia coli TOP10. 1.24

Recorded shrunken log2 fold change for RRIRLRPPRLPRPRPRPKERPRP with Escherichia coli TOP10, please? -0.00664

// lookup shrunken log2 fold change | system=Escherichia coli TOP10 | key= RRIRKRPPRLPRPRPRPDHEPRP -0.013

What reported shrunken log2 fold change corresponds to RRIRFRPPRLPRPRPRPVENPRP on Escherichia coli TOP10? -0.109

Quick check: shrunken log2 fold change on Escherichia coli TOP10, item RRIRRRPPRLPRPRPRPGVHPRP ? -0.178

Query for Escherichia coli TOP10: what shrunken log2 fold change does the record show for RRIRKRPPRLPRPRPRPRCDPRP ? 0.288

###

System: Escherichia coli TOP10;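 note: peptides expressed intracellularly from a pBAD plasmid library in pooled LB shake-flask culture, induced with 0.3% L-arabinose, DNA abundance read by NGS, three biological replicates, DESeq2 with apeglm shrinkage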
Test: shrunken log2 fold change of peptide-encoding DNA abundance (4.5 h post-induction vs induction); higher = less antimicrobial activity (less host growth inhibition)
Conditions: time post-induction: 4.5 h; library: site-saturation at positions 5, 18, 19, 20
quantity_name: shrunken log2 fold change
Form rule: numeric answer, no unit written next to it.

Give Escherichia coli TOP10 shrunken log2 fold change for RRIRERPPRLPRPRPRPVFFPRP 0.0585

Query shrunken log2 fold change on Escherichia coli TOP10 for RRIRQRPPRLPRPRPRPCQNPRP -0.173

What measured shrunken log2 fold change is associated with RRIRMRPPRLPRPRPRPKQMPRP on Escherichia coli TOP10? 1.25

Given the entry RRIRSRPPRLPRPRPRPRWDPRP , what shrunken log2 fold change was observed with Escherichia coli TOP10? 0.197

I'm curious: which shrunken log2 fold change was measured for RRIRSRPPRLPRPRPRPKTRPRP tested on Escherichia coli TOP10? 0.156

Request: shrunken log2 fold change, test system Escherichia coli TOP10, entry RRIRNRPPRLPRPRPRPIMSPRP -0.103

Any idea what shrunken log2 fold change came out for RRIRNRPPRLPRPRPRPETRPRP on Escherichia coli TOP10? 0.254

Can you look up shrunken log2 fold change on Escherichia coli TOP10 for RRIRRRPPRLPRPRPRPHATPRP ? 0.492

Record lookup: for Escherichia coli TOP10, what shrunken log2 fold change belongs to RRIRCRPPRLPRPRPRPPGKPRP ? 0.141

Find shrunken log2 fold change (Escherichia coli TOP10) for the entry RRIRIRPPRLPRPRPRPQDHPRP -0.466

Find shrunken log2 fold change (Escherichia coli TOP10) for the entry RRIRNRPPRLPRPRPRPKRCPRP 0.406

Notebook entry, Escherichia coli TOP10 assay: shrunken log2 fold change of RRIRSRPPRLPRPRPRPVYLPRP = ? -0.519

Recall the recorded shrunken log2 fold change for RRIRMRPPRLPRPRPRPTIPPRP with Escherichia coli TOP10 and state it. -0.316

Recall the recorded shrunken log2 fold change for RRIRERPPRLPRPRPRPKPPPRP with Escherichia coli TOP10 and state it. 0.242

What reported shrunken log2 fold change corresponds to RRIRDRPPRLPRPRPRPLMRPRP on Escherichia coli TOP10? 0.665

GET /values?readout=shrunken log2 fold change&system=Escherichia coli TOP10&item= RRIRRRPPRLPRPRPRPDCIPRP 0.0761

# get_value(readout= shrunken log2 fold change, system= Escherichia coli TOP10) for RRIRRRPPRLPRPRPRPQVHPRP 0.148

Param readout= shrunken log2 fold change; system= Escherichia coli TOP10; entry= RRIRIRPPRLPRPRPRPMGCPRP ; returns value. 0.00177

Give the reported shrunken log2 fold change for RRIRSRPPRLPRPRPRPRIMPRP (system: Escherichia coli TOP10). -0.105

Field: shrunken log2 fold change (Escherichia coli TOP10). Entry: RRIRVRPPRLPRPRPRPKRGPRP 0.054

Lab request: please report shrunken log2 fold change under test system Escherichia coli TOP10 for RRIRWRPPRLPRPRPRPTPMPRP 0.24

What is its shrunken log2 fold change for Escherichia coli TOP10? Entry: RRIRARPPRLPRPRPRPWAVPRP 0.295

Hello, I am looking for reported shrunken log2 fold change with Escherichia coli TOP10 for RRIRCRPPRLPRPRPRPHVWPRP . Could you help? -0.185

shrunken log2 fold change of RRIRTRPPRLPRPRPRPQQKPRP on Escherichia coli TOP10? -0.0118

What shrunken log2 fold change appears in the records for this sequence with Escherichia coli TOP10? RRIRSRPPRLPRPRPRPWCVPRP -0.22

Form field - read-out: shrunken log2 fold change; system: Escherichia coli TOP10; submitted item: RRIRCRPPRLPRPRPRPENIPRP -1.32

Please tell me: shrunken log2 fold change of RRIRRRPPRLPRPRPRPKWCPRP , system Escherichia coli TOP10? 0.431

Tell me reported shrunken log2 fold change for RRIRCRPPRLPRPRPRPAWPPRP , tested with Escherichia coli TOP10. 0.895

What value of shrunken log2 fold change on Escherichia coli TOP10 does RRIRERPPRLPRPRPRPSCLPRP have? -0.484

Test system Escherichia coli TOP10; read-out shrunken log2 fold change; what value for RRIRSRPPRLPRPRPRPSCAPRP ? 0.0589

Give Escherichia coli TOP10 shrunken log2 fold change for RRIRIRPPRLPRPRPRPLLSPRP -0.483

Hi! What's the reported shrunken log2 fold change for RRIRNRPPRLPRPRPRPMVSPRP on Escherichia coli TOP10? -0.145

Can you look up shrunken log2 fold change on Escherichia coli TOP10 for RRIRLRPPRLPRPRPRPGSEPRP ? -0.0984

Please tell me: shrunken log2 fold change of RRIRMRPPRLPRPRPRPENCPRP , system Escherichia coli TOP10? 0.0159

API: value(readout= shrunken log2 fold change, system= Escherichia coli TOP10, query= RRIRWRPPRLPRPRPRPWLDPRP ) -0.231

Lookup: shrunken log2 fold change / Escherichia coli TOP10 / RRIRIRPPRLPRPRPRPTPVPRP 0.234

# get_value(readout= shrunken log2 fold change, system= Escherichia coli TOP10) for RRIRKRPPRLPRPRPRPLAGPRP 0.286

Request body: readout shrunken log2 fold change, system Escherichia coli TOP10, query RRIRHRPPRLPRPRPRPFNEPRP . Return the value. -0.64

Record lookup: for Escherichia coli TOP10, what shrunken log2 fold change belongs to RRIRNRPPRLPRPRPRPEGCPRP ? -0.0205

State its shrunken log2 fold change on Escherichia coli TOP10: RRIRGRPPRLPRPRPRPDKVPRP 0.32

# get_value(readout= shrunken log2 fold change, system= Escherichia coli TOP10) for RRIRSRPPRLPRPRPRPAWSPRP 0.58

Kindly state the measured shrunken log2 fold change obtained for RRIRWRPPRLPRPRPRPWVWPRP with Escherichia coli TOP10. 0.0506

Under Escherichia coli TOP10: shrunken log2 fold change value of RRIRCRPPRLPRPRPRPQAEPRP ? 0.215

# query: shrunken log2 fold change | item RRIRVRPPRLPRPRPRPPQYPRP | system: Escherichia coli TOP10 -0.19

Identify the measured shrunken log2 fold change of RRIRVRPPRLPRPRPRPNKYPRP for Escherichia coli TOP10. -0.668

Lab request: please report shrunken log2 fold change under test system Escherichia coli TOP10 for RRIRPRPPRLPRPRPRPDTQPRP -0.371

Field: shrunken log2 fold change (Escherichia coli TOP10). Entry: RRIRCRPPRLPRPRPRPNTWPRP -0.539

Identify the measured shrunken log2 fold change of RRIRWRPPRLPRPRPRPWNEPRP for Escherichia coli TOP10. 0.0237

Field: shrunken log2 fold change (Escherichia coli TOP10). Entry: RRIRIRPPRLPRPRPRPVCWPRP 0.32

Query the reported shrunken log2 fold change for Escherichia coli TOP10; item: RRIRARPPRLPRPRPRPTICPRP 0.144

Requested read-out shrunken log2 fold change, target or system Escherichia coli TOP10, entry RRIRERPPRLPRPRPRPKWQPRP -0.0355

Enter reported shrunken log2 fold change observed with Escherichia coli TOP10 for RRIRVRPPRLPRPRPRPIWNPRP -0.624

// map RRIRSRPPRLPRPRPRPRKGPRP to recorded shrunken log2 fold change (system: Escherichia coli TOP10) 0.208

Request: shrunken log2 fold change, test system Escherichia coli TOP10, entry RRIRIRPPRLPRPRPRPRPMPRP 0.129
